Tested on: K562
test-protocol: cell viability relative to vehicle control; higher = less cytotoxic;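 also: after 48 h exposure read by CellTiter-Glo luminescence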
assay-conditions: 10 µM; SRSF2 genotype: SRSF2 wt/wt
Quick reference: cell viability of the listed items.
Note: unit % is implicit; provide only the numeric part.

Below, each entry is followed by its recorded cell viability result.
- compound: "CC(NC(=O)C(Cc1ccccc1)NC(=O)OCc1ccccc1)C(=O)CF (stereo not given)"
  quantity-unit: "%"
  endpoint-result: 96
- compound: "O=C(c1ccc(Cl)cc1)N(Cc1ccccc1)C1CCCCC1"
  quantity-unit: "%"
  endpoint-result: 92.3
- compound: "C1=N/C2=N/c3ccc(OCCN4CCCC4)c(c3)COC/C=C/COCc3cccc(c3)C(=C1)N2 [Pacritinib (SB1518)]"
  quantity-unit: "%"
  endpoint-result: 4.47
- compound: "CN1CCN(C2=Nc3cc(Cl)ccc3Nc3ccccc32)CC1 [Clozapine (Clozaril)]"
  quantity-unit: "%"
  endpoint-result: 98.8
- compound: "N[C@@H](Cc1cc(I)c(Oc2cc(I)c(O)c(I)c2)c(I)c1)C(=O)O [L-Thyroxine]"
  quantity-unit: "%"
  endpoint-result: 101
- compound: "CC1OC(OC2C(CO)OC(OCC3OC(OC(=O)C45CCC(C)(C)CC4C4=CCC6C7(C)CCC(OC8OCC(O)C(O)C8O)C(C)(CO)C7CCC6(C)C4(C)CC5)C(O)C(O)C3O)C(O)C2O)C(O)C(O)C1O (stereo not given) [Hederacoside D]"
  quantity-unit: "%"
  endpoint-result: 101
- compound: "COC(=O)c1cc(OC)c2c(c1-c1c(C(=O)OC)cc(OC)c3c1OCO3)OCO2 [Bifendate]"
  quantity-unit: "%"
  endpoint-result: 98.7
- compound: "CN1CCN2c3ncccc3Cc3ccccc3C2C1 (stereo not given) [Mirtazapine (Remeron, Avanza)]"
  quantity-unit: "%"
  endpoint-result: 88.7

// next entry
Inquiry: Give the measured cell viability of S=C(NCc1ccc2c(c1)OCO2)N1CCN(c2ncnc3c2oc2ccccc23)CC1 [Amuvatinib (MP-470)] .
Reply text: 64.2

###

Test system: MARIMO
test-protocol: cell viability relative to vehicle control; higher = less cytotoxic
assay-conditions: 10 µM; SRSF2 genotype: SRSF2 wt/wt
attribute-measured: cell viability (%)
Note: unit % is implicit; provide only the numeric part.

Below, each entry is followed by its recorded cell viability result.
- compound: "C[C@H]1COc2c(N3CCN(C)CC3)c(F)cc3c(=O)c(C(=O)O)cn1c23 [Levofloxacin hydrate]"
  cell viability (%): 98.4
- compound: "COc1cc2c(cc1OC)CN(CCc1ccc(NC(=O)c3cc(OC)c(OC)cc3NC(=O)c3cnc4ccccc4c3)cc1)CC2"
  cell viability (%): 105
- compound: "CCCCCCCCCC(C)=O"
  cell viability (%): 101
- compound: "C=C1CC[C@H]2O[C@]2(C)CC[C@@H]2[C@@H]1CC2(C)C [Caryophyllene oxide]"
  cell viability (%): 105

Inquiry: Provide the documented cell viability with MARIMO as the system for O=C(NC[C@H]1CN(c2ccc(N3CCOCC3=O)cc2)C(=O)O1)c1ccc(Cl)s1
Reply text: 91.3

###

Test system: MOLM14
test-protocol: cell viability relative to vehicle control; higher = less cytotoxic
assay-conditions: 10 µM; SRSF2 genotype: SRSF2 P95H/wt
Structures can show the parent of a compound that is named as a salt.
Rule: cell viability below 70% gives y. Equal to or above 70% gives n.

For orientation, consider the following solved cases.
- compound: "CC(=O)O[C@@H]1CC[C@@]2(C)[C@@H](CC[C@]3(C)[C@@H]2C(=O)C=C2[C@@H]4[C@@H](C)[C@H](C)CC[C@]4(C)CC[C@]23C)[C@@]1(C)C(=O)O"
  assigned-label: "n"
- compound: "C=C1CCC[C@]2(C)C[C@@H]3OC(=O)C(C)=C3C[C@@H]12 [Atractylenolide II]"
  assigned-label: "n"

Inquiry: Determine whether this compound shows cell viability lower than 70% (ties excluded): C[N+](C)(C)C[C@H](O)CC(=O)[O-]
Reply text: n

Inquiry: Determine whether this compound shows cell viability lower than 70% (ties excluded): N=C(NCCCCCCNC(=N)NC(=N)Nc1ccc(Cl)cc1)NC(=N)Nc1ccc(Cl)cc1
Reply text: y

Inquiry: Determine whether this compound shows cell viability lower than 70% (ties excluded): O=NO [Sodium Nitrite]
Reply text: n

Inquiry: Determine whether this compound shows cell viability lower than 70% (ties excluded): CCC(=O)Nc1cccc(Oc2nc(Nc3ccc(N4CCN(C)CC4)cc3OC)ncc2Cl)c1
Reply text: y

Inquiry: Determine whether this compound shows cell viability lower than 70% (ties excluded): COc1cc2c(cc1OC)-c1c(C)c3ccc(OC)c(OC)c3c[n+]1CC2 [Dehydrocorydalin]
Reply text: n

Inquiry: Determine whether this compound shows cell viability lower than 70% (ties excluded): CCOC(=O)[C@H](CCc1ccccc1)N[C@@H](C)C(=O)N1CCC[C@H]1C(=O)O [Enalapril maleate (Vasotec)]
Reply text: n

Inquiry: Determine whether this compound shows cell viability lower than 70% (ties excluded): O=C(O)CCNc1cc(N2CCc3ccccc3CC2)nc(-c2ccccn2)n1
Reply text: n
